Molecular target: CDK2/cyclin A (Homo sapiens, UniProt P24941)
Assay: biochemical
testReadout: IC50
// return the numeric value with its unit appended

Endpoint output: IC50 of CC(C)c1n[nH]c2c(NCc3ccccc3-c3ccccc3)nc(SC3CCNCC3)nc12 . Value? 500 nM

----------
Biological target: CDK4/cyclin D1 (Homo sapiens)
Sequence (P11802 whole entry): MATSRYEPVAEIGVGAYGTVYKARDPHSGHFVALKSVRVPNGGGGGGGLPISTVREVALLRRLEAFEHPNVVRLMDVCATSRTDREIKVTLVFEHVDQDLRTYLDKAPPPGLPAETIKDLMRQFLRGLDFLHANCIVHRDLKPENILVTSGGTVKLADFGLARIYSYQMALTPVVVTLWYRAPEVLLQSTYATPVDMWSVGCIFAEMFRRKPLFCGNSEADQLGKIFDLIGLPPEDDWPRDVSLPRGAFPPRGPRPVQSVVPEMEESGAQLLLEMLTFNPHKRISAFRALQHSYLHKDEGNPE
Sequence (P24385 whole entry partner): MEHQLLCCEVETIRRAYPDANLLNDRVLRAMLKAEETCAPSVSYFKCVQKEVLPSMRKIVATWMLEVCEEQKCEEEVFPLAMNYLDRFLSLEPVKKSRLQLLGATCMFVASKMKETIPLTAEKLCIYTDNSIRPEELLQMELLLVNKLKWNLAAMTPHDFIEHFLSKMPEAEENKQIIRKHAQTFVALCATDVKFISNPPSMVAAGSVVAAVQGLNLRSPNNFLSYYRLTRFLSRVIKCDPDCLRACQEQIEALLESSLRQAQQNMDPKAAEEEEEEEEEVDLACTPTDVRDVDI
Assay: biochemical
pIC50: −log10 of the molar value.
testReadout: pIC50

Endpoint output: pIC50 of CC(C)c1n[nH]c2c(NCc3ccccc3-c3ccccc3)nc(SC3CCNCC3)nc12 [compound 4] . Value? < 4.70

----------
Molecular target: CDK2/cyclin E (Homo sapiens, UniProt P24941)
Experiment: biochemical
Protocol: The kinase inhibition assay was performed as previously described. Briefly, all tested kinases were incubated with specific substrates in the presence of ATP, 0.05 µCi [γ^33P]ATP and the LGR6768 compound in a final volume of 10 µl. The reaction was stopped by adding 3% aq. […] Kinase inhibition was quantified using a FLA-7000 digital image analyser (Fujifilm). […] Given the high structural similarity within the CDK family, we also evaluated LGR6768 against 14 CDKs to assess its selectivity across them. […]
testReadout: IC50 (nM)
Numbers only, in nM.

Endpoint output: IC50 of CC(C)c1n[nH]c2c(NCc3ccccc3-c3ccccc3)nc(SC3CCNCC3)nc12 [compound 4] . Value? 250

----------
Molecular target: CDK7 (Homo sapiens)
Construct: recombinant CDK7; with Cyclin-H
Sequence (P50613 2-346): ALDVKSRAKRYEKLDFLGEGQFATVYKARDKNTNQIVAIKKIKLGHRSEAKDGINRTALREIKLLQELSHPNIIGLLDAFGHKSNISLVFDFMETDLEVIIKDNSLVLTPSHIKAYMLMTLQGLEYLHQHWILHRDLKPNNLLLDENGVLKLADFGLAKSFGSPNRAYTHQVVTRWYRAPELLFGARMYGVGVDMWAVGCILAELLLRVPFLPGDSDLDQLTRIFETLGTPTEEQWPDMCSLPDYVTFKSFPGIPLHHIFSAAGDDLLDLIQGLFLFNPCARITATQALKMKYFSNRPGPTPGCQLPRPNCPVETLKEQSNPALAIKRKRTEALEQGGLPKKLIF
Sequence (P51946 whole entry partner): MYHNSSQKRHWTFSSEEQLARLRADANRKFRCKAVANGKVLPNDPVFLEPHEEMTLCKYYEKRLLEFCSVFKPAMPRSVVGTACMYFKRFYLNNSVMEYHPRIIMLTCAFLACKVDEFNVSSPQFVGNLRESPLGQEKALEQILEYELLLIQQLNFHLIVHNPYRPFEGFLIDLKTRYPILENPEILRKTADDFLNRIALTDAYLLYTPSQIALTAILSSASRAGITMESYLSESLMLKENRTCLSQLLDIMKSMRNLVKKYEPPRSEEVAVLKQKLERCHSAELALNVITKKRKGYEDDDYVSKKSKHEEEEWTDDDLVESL
Sequence (P51948 whole entry partner): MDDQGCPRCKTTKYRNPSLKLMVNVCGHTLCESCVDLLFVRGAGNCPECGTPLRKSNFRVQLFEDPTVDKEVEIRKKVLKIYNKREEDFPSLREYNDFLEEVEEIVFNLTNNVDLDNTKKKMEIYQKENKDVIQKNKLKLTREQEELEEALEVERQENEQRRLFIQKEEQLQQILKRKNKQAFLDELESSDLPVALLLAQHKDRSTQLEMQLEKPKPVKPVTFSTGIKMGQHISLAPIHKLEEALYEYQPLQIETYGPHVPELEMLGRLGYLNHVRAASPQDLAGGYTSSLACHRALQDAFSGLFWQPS
Test: [gamma-33P]ATP radiometric kinase assay
testReadout: IC50 (nM)
Give bare numbers, in nM.

Endpoint output: IC50 of CC(C)c1n[nH]c2c(NCc3ccccc3-c3ccccc3)nc(SC3CCNCC3)nc12 . Value? 20

----------
Target: CDK1/cyclin B (Homo sapiens, UniProt P06493)
Sequence (P06493 whole entry): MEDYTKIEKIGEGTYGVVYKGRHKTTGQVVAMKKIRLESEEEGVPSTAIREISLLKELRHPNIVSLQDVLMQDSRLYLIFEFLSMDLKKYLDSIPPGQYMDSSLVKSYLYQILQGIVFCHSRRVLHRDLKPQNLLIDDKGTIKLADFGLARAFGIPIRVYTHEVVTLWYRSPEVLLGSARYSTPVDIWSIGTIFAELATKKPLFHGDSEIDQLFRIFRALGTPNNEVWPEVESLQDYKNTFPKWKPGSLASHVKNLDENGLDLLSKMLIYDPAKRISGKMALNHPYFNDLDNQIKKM
Sequence (P14635 whole entry partner): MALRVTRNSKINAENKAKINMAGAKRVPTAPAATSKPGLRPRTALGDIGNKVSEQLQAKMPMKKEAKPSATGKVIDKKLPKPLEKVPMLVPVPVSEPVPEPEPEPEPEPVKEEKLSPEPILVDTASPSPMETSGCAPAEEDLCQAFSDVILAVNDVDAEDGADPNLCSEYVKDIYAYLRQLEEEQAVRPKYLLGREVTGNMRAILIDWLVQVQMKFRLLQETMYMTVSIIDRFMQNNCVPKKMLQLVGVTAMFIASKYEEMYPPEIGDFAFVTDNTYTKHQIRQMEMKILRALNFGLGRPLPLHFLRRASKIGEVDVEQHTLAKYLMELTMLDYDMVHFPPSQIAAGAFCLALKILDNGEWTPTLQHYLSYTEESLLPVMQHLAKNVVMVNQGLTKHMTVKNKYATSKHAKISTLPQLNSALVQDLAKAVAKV
Test: biochemical
testReadout: pIC50
Give bare numbers, as −log10 of the molar value.

Endpoint output: pIC50 of CC(C)c1n[nH]c2c(NCc3ccccc3-c3ccccc3)nc(SC3CCNCC3)nc12 . Value? 5.29
